Let's look at some binders and their measured Kd.
experimental.system: recombinant conformational HCV E2 antigen (HCV genotype 1a) (hepatitis C virus, HCV1 (genotype 1a), UniProt P26664 383-715)
Sequence (P26664 383-715): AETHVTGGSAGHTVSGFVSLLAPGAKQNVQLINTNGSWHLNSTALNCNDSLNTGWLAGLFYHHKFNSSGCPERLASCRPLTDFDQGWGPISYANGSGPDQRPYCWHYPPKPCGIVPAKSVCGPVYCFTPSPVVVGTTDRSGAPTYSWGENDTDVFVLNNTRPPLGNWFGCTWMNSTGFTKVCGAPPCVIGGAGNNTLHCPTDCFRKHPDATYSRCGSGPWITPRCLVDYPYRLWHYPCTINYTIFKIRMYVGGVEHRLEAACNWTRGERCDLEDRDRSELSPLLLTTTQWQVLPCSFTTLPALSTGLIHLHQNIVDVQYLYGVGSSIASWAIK

1. Fab molecule clone A8 (Fab, V domains shown) VH: EVQLLESGPGLVKPSGTLSLTCTVSGGSIRSSHWWSWVRQPPGKGLEWIGEVFFSGSTIYNPSLNDRVFMSVDKSKDQVSLRLSSVTAADTAVYYCARSPIKMNQGRMMLDAFDIWGQGTLVIVSS VL: AELTQSPSSLSAFVGDRVTITCRASQSISRNLNWYQQKPGTAPKVLIYAASSLQSGVPSRFSGSGSGTDFTLTITSLQPEDFATYYCQQSYTTPRTFGQGTKVEVK: ~6 nM

Here is the next item to consider.
The reported Kd of the binder Fab molecule clone L1 (Fab, V domains shown, also called Ll) VH: EVQLLESGGGVVQPGRSLRLSCAASGFTFSAYGMHWVRQAPGKGLEWVAGIWFDGSNQYYSDSVKGRFTVSRDNSRNTLFLQMNSLRPEDTAVYYCATEVLFGSIKGRYYLENWGQGTLVTVSS VL: AELTQSPGTLSLSVGERATLSCRASQNIYSGYLGWYQQKPGQPPRLLIYGASNRATGIPDRFSGSGSGTDFTLTISRLESEDFAVYYCQQYGSPPYTFGQGTKVEIK was ~28 nM
